# EC50 values compiled below
study-system: T1, human CLDN6 (UniProt P56747 1-220)
T1 chain: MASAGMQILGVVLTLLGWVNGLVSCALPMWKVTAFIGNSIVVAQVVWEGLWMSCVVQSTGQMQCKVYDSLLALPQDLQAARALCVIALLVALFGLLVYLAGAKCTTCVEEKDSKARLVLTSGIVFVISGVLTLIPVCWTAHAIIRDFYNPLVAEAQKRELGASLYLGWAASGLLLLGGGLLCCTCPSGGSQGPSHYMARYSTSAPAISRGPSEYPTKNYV
assay-summary: HEK293E cell binding; avid
Express it in µg/mL; write the number only.

// worked examples, EC50 included
XENP35061 H2_L1.18 (antibody, V domains shown) VH: EVQLVQSGAEVKKPGESLRISCKTSGYTFTEYTMHWVRQMPGKSLEWMGGIDPNNGNTHYNQKFQGHVTISVDKSISTAYLQWSSLKASDTAMYYCARIYYFGRLYFDFWGAGTLVTVSS VL: DIQMTQSPSSLSASVGDRVTITCQASEDIYNRLAWYQQKPGKVPKLLISGTTSLETGVPSRFSGSGSGKDYTFTISSLQPEDIATYYCQQYWSSPLTFGGGTKVEIKR    1.25
XENP35092 H1.8_L1 (antibody, V domains shown) VH: QVQLVQSGAEVKKPGASVKVSCKTSGYTFTEYTMHWVRQAPGQSLEWMGGIDPNNDNTHYNQKFQGRVTITVDKSASTAYMELSSLRSEDTAVYYCARIYYFGRLYFDFWGAGTLVTVSS VL: DIQMTQSPSSLSASVGDRVTITCQASEDIYNRLAWYQQKPGKVPKLLISGATSLETGVPSRFSGSGSGKDYTFTISSLQPEDIATYYCQQYWSSPLTFGGGTKVEIKR    1.16
XENP35066 H2_L1.23 (antibody, V domains shown) VH: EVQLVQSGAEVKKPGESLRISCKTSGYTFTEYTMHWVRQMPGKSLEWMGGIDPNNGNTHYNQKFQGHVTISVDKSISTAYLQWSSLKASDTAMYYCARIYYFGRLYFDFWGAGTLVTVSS VL: DIQMTQSPSSLSASVGDRVTITCQASEDIYNRLAWYQQKPGKVPKLLISGATSRETGVPSRFSGSGSGKDYTFTISSLQPEDIATYYCQQYWSSPLTFGGGTKVEIKR    1.59
XENP35070 H2_L1.27 (antibody, V domains shown) VH: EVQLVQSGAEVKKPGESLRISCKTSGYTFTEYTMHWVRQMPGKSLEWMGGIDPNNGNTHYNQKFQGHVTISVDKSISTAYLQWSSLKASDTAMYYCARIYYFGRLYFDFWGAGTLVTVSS VL: DIQMTQSPSSLSASVGDRVTITCQASEDIYNRLAWYQQKPGKVPKLLISGATSLESGVPSRFSGSGSGKDYTFTISSLQPEDIATYYCQQYWSSPLTFGGGTKVEIKR    1.18

Could you now look at the following binder, please?
Lab note: measured EC50 of XENP34218, humanized C6-30 H1L1 bivalent mAb (antibody, V domains shown) VH: QVQLVQSGAEVKKPGASVKVSCKTSGYTFTEYTMHWVRQAPGQSLEWMGGIDPNNGNTHYNQKFQGRVTITVDKSASTAYMELSSLRSEDTAVYYCARIYYFGRLYFDFWGAGTLVTVSS VL: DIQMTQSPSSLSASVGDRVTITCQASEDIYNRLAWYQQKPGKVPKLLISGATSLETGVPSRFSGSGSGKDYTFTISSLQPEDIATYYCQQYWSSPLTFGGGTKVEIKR was 1.24
